# MEASUREMENT NOTES: small molecules captured by biotinylated probe aFGF2 – biochemical, small-molecule microarray, fluorescence 635/667, stem cell growth factor project, primary screen (AID 1067);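 note: measures binding of biotinylated aFGF2 protein to printed compounds on slides; z-score merges feature fluorescence and signal-to-noise across triplicate slides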
# SETTINGS: higher = more signal
Range-based classes on measured composite z-score: low-valued = under -0.1, mid-valued = from -0.1 up to 0.009, high-valued = 0.009 and over

INSERT INTO measurements (compound, category) VALUES
  ('COc1ccc([C@H]2C[C@H]3C(Br)=C[C@@]2(CO)C(=O)[C@]32CO2)cc1', 'mid-valued'),
  ('CC(=O)NCCCC[C@@H]1NC(=O)[C@H]2C[C@@H](C(=O)O)[C@@H](c3ccc(O)cc3)N2C1=O', 'mid-valued'),
  ('COc1cc2c(cc1O)C(c1cccs1)N(Cc1ccc([N+](=O)[O-])o1)CC2 (centres undefined)', 'mid-valued'),
  ('C[N+](C)(C)CCCC[C@@H]1NC(=O)[C@H]2C[C@@H](C(=O)NCCCCCCNC(=O)CS)[C@@H](c3ccc(O)cc3)N2C1=O', 'low-valued'),
  ('COc1ccc(CCNC(=O)[C@@]2(c3ccc([N+](=O)[O-])cc3)CC(=O)N(CC34CC5CC(CC(C5)C3)C4)[C@@H]2c2ccc(CO)cc2I)cc1', 'high-valued');

Where would Cc1ccc(S[C@]2(C(=O)O)CC(=O)N(C(C)C)[C@@H]2c2ccc(CO)cc2)cc1 land among the classes by reported composite z-score?
low-valued

Same again, this time with COC(=O)[C@@]1(Cc2ccccc2)[C@H]2c3cc(C(=O)N(C)C)n(Cc4ccc(OC)c(OC)c4)c3C[C@H]2CN1C(=O)c1ccccc1
high-valued

Next entry: COc1cc2c(cc1O)C(c1cccs1)N(Cc1cccc(OC(F)(F)F)c1)CC2 (centres undefined)
low-valued

* * *

Below: a set of entries, each annotated with reported composite z-score.
# SUBJECT OF TEST: Pro-neuregulin-1, membrane-bound isoform (Homo sapiens) (UniProt Q02297)
# Sequence (Q02297 whole entry, looked up, canonical isoform): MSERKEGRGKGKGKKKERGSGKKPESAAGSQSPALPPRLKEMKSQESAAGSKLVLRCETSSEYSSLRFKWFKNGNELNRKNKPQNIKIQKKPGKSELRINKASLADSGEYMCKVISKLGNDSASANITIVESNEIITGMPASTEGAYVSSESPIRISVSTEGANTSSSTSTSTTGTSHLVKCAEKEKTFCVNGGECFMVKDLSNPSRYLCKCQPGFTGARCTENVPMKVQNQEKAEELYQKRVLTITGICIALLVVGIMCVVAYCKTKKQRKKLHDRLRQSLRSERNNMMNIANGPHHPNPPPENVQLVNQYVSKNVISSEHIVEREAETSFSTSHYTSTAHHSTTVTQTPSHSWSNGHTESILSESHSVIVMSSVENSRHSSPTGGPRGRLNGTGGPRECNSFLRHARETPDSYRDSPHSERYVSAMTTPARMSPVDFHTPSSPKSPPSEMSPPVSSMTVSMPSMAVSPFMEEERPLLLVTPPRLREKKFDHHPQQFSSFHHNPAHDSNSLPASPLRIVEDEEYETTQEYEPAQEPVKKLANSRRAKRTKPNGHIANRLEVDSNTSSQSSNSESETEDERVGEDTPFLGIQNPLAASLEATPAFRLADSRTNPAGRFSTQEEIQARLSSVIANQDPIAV
# MEASUREMENT NOTES: small molecules binding neuregulin-1 protein – biochemical, small-molecule microarray, fluorescence 635/667, psychiatric disease protein project, primary screen (AID 1075);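 note: score combines 667 nm spot fluorescence with signal to noise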
# SETTINGS: NRG1 binding, 635 nm fluorescence, higher = more signal

Worked set:
INSERT INTO measurements (compound, property_measured, recorded_measurement) VALUES
  ('CC(C)C(=C=CC[C@H](O)c1ccc(CO)o1)CCO', 'composite z-score', 1.57),
  ('COc1cc2c(cc1O)C(c1cccs1)N(Cc1cccc(OC(F)(F)F)c1)CC2 (stereo not drawn)', 'composite z-score', 1.39),
  ('COC(=O)C(CC#Cc1ccc2c(c1)[C@]1(C(=O)N2)[C@H](c2ccccc2OCCO)N2[C@H](c3ccccc3)[C@H](c3ccccc3)OC(=O)[C@H]2[C@@H]1C(=O)O)C(=O)OC', 'composite z-score', 1.65),
  ('C=CCNC(=O)[C@H]1[C@@H]2C(=O)O[C@@H](c3ccccc3)[C@@H](c3ccccc3)N2[C@@H](c2ccc(OCCO)cc2)[C@]12C(=O)Nc1ccc(C#CCC(C(=O)OC)C(=O)OC)cc12', 'composite z-score', 1.17),
  ('[N-]=[N+]=NCc1ccccc1[C@@H]1OC(c2ccc(OCCCO)cc2)=N[C@]1(CCS(=O)(=O)c1ccccc1)C(N)=O', 'composite z-score', 2.06);

What does the data say about its composite z-score? Entry: O=C(NCCN1CCOCC1)[C@@H]1c2ccccc2C(=O)N(Cc2cc(C(F)(F)F)cc(C(F)(F)F)c2)[C@H]1c1ccc(CO)cc1
1.27

Also Cc1ccc(/C=C/C=O)cc1 , if possible.
-0.0188

// same read-out, input: CCCCN1CC=CC23O[C@@H]4C=CCOC(=O)[C@@H]4[C@H]2C(=O)N(CCCCCCO)[C@@H]3C1=O (stereo partly drawn)
1.01

Follow-up item: O=C1NC(=O)C2C1C=CC(C(O)C=Cc1ccc([N+](=O)[O-])cc1)N2Nc1ccc(Cl)cc1Cl (stereo not drawn)
1.87

Now try C=CCNC(=O)[C@H]1[C@@H]2C(=O)O[C@@H](c3ccccc3)[C@@H](c3ccccc3)N2[C@@H](c2ccc(O)cc2)[C@]12C(=O)Nc1ccc(C#CCCO)cc12 .
1.01

* * *

# MEASUREMENT NOTES: compound effects on hepatocellular carcinoma cell viability – HepG2, calcein-AM fluorescence, 48 h, basal, profiling panel (AID 1164); note: test concentration not given here
# SETTINGS: higher = more signal
Use 1 when the recorded z-score is no lower than -0.1; use 0 when it is lower.

z-score >= -0.1 for CC(C)[Si](C#CCCCC#N)(Oc1ccccc1Br)C(C)C ?
1

Okay, and NC(=O)NCC#Cc1ccc2c(c1)[C@]1(C(=O)N2)[C@H](C(=O)O)[C@H]2C(=O)O[C@H](c3ccccc3)[C@H](c3ccccc3)N2[C@@H]1c1ccc(O)cc1 ?
1

Thanks! And [N-]=[N+]=Nc1ccccc1C[C@]1(C(=O)NCC(O)CO)N=C(c2ccc(OCCCO)cc2)O[C@H]1c1ccccc1 (stereo partly specified) ?
0

Let us now turn to CC(C)N1CC=CC23O[C@@H]4C=CCOC(=O)[C@@H]4[C@H]2C(=O)N(CCCCCO)[C@@H]3C1=O (stereo partly specified)
0

Please give the result for C=C(CCCC)/C(=C/C[C@H](OC(C)=O)c1ccccc1OCCO)c1cnc2ccccc2c1 too.
1

Also COc1ccc([Si](C)(C)[C@@H]2[C@@H](CC(=O)N3CCC[C@H]3CO)O[C@]3(C(=O)N(Cc4cccc(I)c4)c4ccccc43)[C@H]2C)cc1 , if possible.
0

And for COCCOC(=O)N1C(=O)[C@@]2(c3cc(C#CCCO)ccc31)[C@H](c1ccc(OCCO)cc1)N1[C@H](c3ccccc3)[C@H](c3ccccc3)OC(=O)[C@H]1[C@@H]2C(N)=O ?
1

Would you mind doing COCCCNC(=O)[C@@H]1c2ccccc2C(=O)N(Cc2ccccc2OC)[C@H]1c1ccc(CO)cc1 as well?
0

Let us now turn to O=C1O[C@@H](c2ccccc2)[C@@H](c2ccccc2)N2[C@@H](c3ccccc3OCCO)[C@]3(C(=O)Nc4ccccc43)[C@@H](C(=O)O)[C@H]12
1

Ok, now CC(=O)NCCCC[C@@H]1NC(=O)[C@H]2C[C@@H](C(=O)O)[C@@H](c3ccc(O)cc3)N2C1=O
0

Repeat for the following compound: NC(=O)[C@@]1(Cc2ccccc2)N=C(c2ccc(OCCCO)cc2)O[C@H]1c1ccccc1
0

Continue with COC(=O)[C@@]1(Cc2ccc(F)cc2)[C@H]2c3cc(C(=O)N(C)C)n(Cc4ccc(C)o4)c3C[C@H]2CN1C(=O)c1ccccc1
1

Continue with COC(=O)[C@@]1(Cc2ccc(OC)cc2)[C@H]2c3cc(C(=O)N4CCCC4)n(CCc4ccc(O)c(O)c4)c3C[C@H]2CN1C(=O)c1ccccc1
1

Further, for C=CCC(OC(C)=O)[C@@H]1[C@@H](N(Cc2ccc(-c3cccc(C(F)(F)F)c3)o2)C(=O)Cc2ccc(OC)cc2)c2cc(OCCCO)ccc2N1C(=O)c1ccc2ccccc2c1 (stereo partly specified) ?
0

Same for CCCCC(O)C1C=CC2C(=O)N(C)C(=O)C2N1N1CCCCC1 (stereo unspecified)
0

Likewise for COC(=O)[C@@]1(Cc2ccccc2)[C@H]2c3cc(C(=O)N(C)C)n(CCc4c[nH]c5ccc(O)cc45)c3C[C@H]2CN1C(=O)c1ccccc1 ?
1

* * *

# SUBJECT OF TEST: Calmodulin-1 (Homo sapiens) (UniProt P0DP23)
# MEASUREMENT NOTES: small molecules binding Ca-loaded calmodulin-1 – biochemical, small-molecule microarray, Cy5-labelled CALM1, plus calcium, artefact control for SMM control-protein annotation, profiling panel (AID 1112);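 note: score merges spot fluorescence with signal to noise from triplicate slides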
# SETTINGS: Cy5-CALM1 binding fluorescence, higher = more signal
Entries get a class label from measured composite z-score. See ranges: bottom range (below -0.4), center range (-0.4 to below 0.2), top range (0.2 or more)

INSERT INTO assay_data (compound, subject_of_test, category) VALUES
  ('O=C1[C@H]2C=C(Br)[C@H](C[C@@H]2OCCCCCCO)[C@@]12CO2', 'Calmodulin-1 (Homo sapiens) (UniProt P0DP23)', 'bottom range');

Hi, small favor: classify C=CCC(OC(C)=O)[C@@H]1[C@@H](N(Cc2ccc(-c3cccc(C(F)(F)F)c3)o2)C(=O)c2cccc3ccccc23)c2cc(OCCCO)ccc2N1C(=O)Cc1ccc2ccccc2c1 (some centres undefined) by its composite z-score when you get a moment.
top range

Then what about the compound O=C1O[C@H](c2ccccc2)[C@H](c2ccccc2)N2[C@H]1[C@@H](C(=O)N1CCN(c3ncccn3)CC1)[C@]1(C(=O)Nc3ccc(C#CC4=CCCCC4)cc31)[C@H]2c1ccccc1OCCO ?
center range

* * *

The following compounds are listed with their measured z-score values.
# MEASUREMENT NOTES: viability profiling in MM1S myeloma cells – cell-based, resazurin fluorescence, basal, 24 h, PK04 Diversity Set, profiling panel (AID 1174);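 note: MM1S multiple myeloma cell line; test concentration not given here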
# SETTINGS: higher = more signal, called active from +8 up or from −8 down
// no unit string in output, number only

INSERT INTO results (compound, property_measured, recorded_measurement) VALUES
  ('CC(=O)NCCCC[C@@H]1NC(=O)[C@H]2C[C@@H](C(=O)O)[C@@H](c3ccc(O)cc3)N2C1=O', 'z-score', -0.481);

So what's the measured z-score for this one? COc1cc(CO)cc(I)c1O[C@H]1C=C(C(=O)NCCO)C[C@@H](NC[C@@H]2CCCO2)[C@@H]1O
-0.292

Follow-up item: COCCCNC(=O)[C@@]1(Sc2ccc(C)cc2)CC(=O)N(Cc2ccccc2Cl)[C@@H]1c1ccc(CO)cc1
0.306

Do the same for C=C(CCCC)/C(=C/C[C@H](OC(=O)c1ccncc1)c1ccc(OCCO)cc1)c1cc(C(=O)OC)ccc1OC please
-0.266

Another: CN1C(=O)C2C=CC(C(O)c3ccc(F)cc3)N(N(c3ccccc3)c3ccccc3)C2C1=O (stereo not given)
-0.957

// next record CCCCC(=C=CC[C@@H](O)c1ccc(CO)o1)CCO
-0.438

Also need CCCNC(=O)[C@@]1(Sc2ccc(C)cc2)CC(=O)N(Cc2ccccc2C(F)(F)F)[C@@H]1c1ccc(CO)cc1I , thanks.
-2.54

Likewise for COc1ccc(CCNC(=O)[C@@]2(c3ccc([N+](=O)[O-])cc3)CC(=O)N(CC34CC5CC(CC(C5)C3)C4)[C@@H]2c2ccc(CO)cc2I)cc1 ?
-1.81

Repeat with COCCOC(=O)N1C(=O)[C@@]2(c3cc(C#CC4(O)CCCCCC4)ccc31)[C@H](C(=O)Nc1nc3ccccc3s1)[C@H]1C(=O)O[C@H](c3ccccc3)[C@H](c3ccccc3)N1[C@@H]2c1ccc(OCCO)cc1
-0.584

Would you kindly repeat that for COC(=O)[C@@]1(Cc2ccc(OC)cc2)[C@H]2c3cc(C(=O)N4CCCC4)n(CCCNc4ncc(C(F)(F)F)cc4Cl)c3C[C@H]2CN1C(=O)c1ccccc1 ?
-1.12
